Just for reference, the RNAGym collection of RNA variant scans (doi:10.7554/elife.80360) is where these values come from.

Recorded self-cleavage values for a group of variants are listed next.
B1: HDV Ribozyme (parent)
chain: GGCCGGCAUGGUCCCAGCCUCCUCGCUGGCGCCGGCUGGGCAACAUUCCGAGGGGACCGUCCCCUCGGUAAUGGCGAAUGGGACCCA

Variants of: B1
Experiment notes: self-cleavage, relative activity (ratio to wild type); higher = more cleavage; co-transcriptional
Answer with a number only.

Answered examples (3):
[[record]]
mutations = "U37G G38C"
measured_endpoint = "self-cleavage"
value_measured = 0.192

[[record]]
mutations = "C26G C30U"
measured_endpoint = "self-cleavage"
value_measured = 0.415

[[record]]
mutations = "C13U A51G"
measured_endpoint = "self-cleavage"
value_measured = 0.89


From here, focus on the item given below.
// G38A G55A : self-cleavage value = 0.0821
